Target: 5HT-transporter (Homo sapiens, UniProt P31645)
Construct: Human platelet membranes (Oceanix Biosciences Corporation, Hanover, Md., USA) were thawed; tissue Oceanix Biosciences Corporation, Hanover, Md., USA; host or cells: human platelet membranes
Sequence (P31645 whole entry): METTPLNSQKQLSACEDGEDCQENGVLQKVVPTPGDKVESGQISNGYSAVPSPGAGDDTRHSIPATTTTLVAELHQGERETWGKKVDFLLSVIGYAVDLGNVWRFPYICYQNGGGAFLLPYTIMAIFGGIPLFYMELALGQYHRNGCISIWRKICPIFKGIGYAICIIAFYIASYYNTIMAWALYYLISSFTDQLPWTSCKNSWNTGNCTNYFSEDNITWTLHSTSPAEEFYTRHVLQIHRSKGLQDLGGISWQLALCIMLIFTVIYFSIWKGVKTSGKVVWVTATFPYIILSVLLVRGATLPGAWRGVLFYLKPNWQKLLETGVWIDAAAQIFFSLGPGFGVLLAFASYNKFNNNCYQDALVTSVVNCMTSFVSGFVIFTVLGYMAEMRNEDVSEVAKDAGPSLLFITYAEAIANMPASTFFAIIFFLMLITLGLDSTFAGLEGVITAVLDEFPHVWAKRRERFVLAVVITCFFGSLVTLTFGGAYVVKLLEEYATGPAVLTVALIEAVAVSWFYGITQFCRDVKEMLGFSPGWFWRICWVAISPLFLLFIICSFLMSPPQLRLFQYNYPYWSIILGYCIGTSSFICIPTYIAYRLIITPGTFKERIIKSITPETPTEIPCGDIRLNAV
Assay: Binding experiment for the 5HT-transporter ([3H]paroxetine, human platelet membranes)
Conditions: [3H]paroxetine 0.5 nM, 60 min at 25° C., read-out: h-5HTT pIC50 (converted)
observable: log10(IC50) (log10 of the value in µM)
Hi team, quick reminder: these entries are log10 of IC50 (µM).

Reported log10(IC50) for COCCCNC(=O)NCc1ccc(-n2ccnc(NC3CCN(Cc4ccc5ccccc5c4)CC3)c2=O)cc1 [1-46] was -1.20

Reported log10(IC50) for O=C(Cn1ccnc(NC2CCN(Cc3ccc4ccccc4c3)CC2)c1=O)NCCN1CCOCC1 [1-94] was 0.30

Reported log10(IC50) for Cc1ccc(CNC(=O)NCc2ccc(-n3ccnc(NC4CCN(Cc5ccc6ccccc6c5)CC4)c3=O)cc2)cc1F [1-49] was -1.40

Reported log10(IC50) for CC(C)(C)OC(=O)NCCCn1ccnc(NC2CCN(Cc3ccc4ccccc4c3)CC2)c1=O [1-32] was -1.50

Reported log10(IC50) for C#CCN(C)C(=O)Cn1ccnc(NC2CCN(Cc3ccc4ccccc4c3)CC2)c1=O [1-38] was 0.20

Reported log10(IC50) for O=c1c(NC2CCN(Cc3ccc4ccccc4c3)CC2)nccn1-c1ccc2c(c1)CN(Cc1ncc[nH]1)CC2 [6-14] was -1.80

Reported log10(IC50) for CN(CCCn1ccnc(NC2CCN(Cc3ccc4ccccc4c3)CC2)c1=O)C(=O)OC(C)(C)C [1-35] was -1.40

Reported log10(IC50) for O=C(Cn1ccnc(NC2CCN(Cc3ccc4ccccc4c3)CC2)c1=O)N1CCN(Cc2ccccc2)CC1 [2-06] was -0.50

Reported log10(IC50) for O=c1[nH]c(-c2cccc(Br)c2)c(Cl)nc1NC1CCN(Cc2ccc3ccccc3c2)CC1 [7-01] was -0.30

Reported log10(IC50) for O=c1c(NC2CCN(Cc3ccc4ccccc4c3)CC2)nccn1-c1ccc(CNCCF)c(F)c1 [1-08] was -2.00

Reported log10(IC50) for O=c1[nH]ccnc1NC1CCN(Cc2ccc3ccccc3c2)CC1 [5-01] was 0.10

Reported log10(IC50) for O=c1c(NC2CCN(Cc3ccc4ccccc4c3)CC2)nccn1-c1ccc(COCCN2CCOCC2)cc1 [3-13] was -2.30

Reported log10(IC50) for CCCC(=O)Nc1cccc(-n2ccnc(NC3CCN(Cc4ccc5ccccc5c4)CC3)c2=O)c1 [1-23] was -2.20

Reported log10(IC50) for O=C(Cn1ccnc(NC2CCN(Cc3ccc4ccccc4c3)CC2)c1=O)N(Cc1ccccc1)c1ccccc1 [1-104] was -0.90

Reported log10(IC50) for N#CCCn1ccnc(NC2CCN(Cc3ccc4ccccc4c3)CC2)c1=O [5-05] was -0.50

Reported log10(IC50) for O=C1CCCN1Cc1ccc(-n2ccnc(NC3CCN(Cc4ccc5ccccc5c4)CC3)c2=O)cc1 [2-01] was -1.70

Reported log10(IC50) for O=c1c(NC2CCN(Cc3ccc4ccccc4c3)CC2)nccn1-c1ccc(CN2CCC(F)CC2)c(F)c1 [2-13] was -2.20

Provenance of the data: patent US20080269251A1
